- study_system: Bovine trypsin (Bos taurus)
- Construct: Bovine trypsin is purchased; purchased Worthington Biochemicals, Freehold, N.J
- Sequence (P00760 24-246): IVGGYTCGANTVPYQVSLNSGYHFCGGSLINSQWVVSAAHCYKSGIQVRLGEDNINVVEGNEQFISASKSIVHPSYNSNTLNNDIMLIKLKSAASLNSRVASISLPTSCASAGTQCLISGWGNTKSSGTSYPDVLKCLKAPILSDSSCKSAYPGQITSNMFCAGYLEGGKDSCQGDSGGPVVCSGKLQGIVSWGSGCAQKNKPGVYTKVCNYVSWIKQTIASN
- measurement_protocol: Kass with trypsin, chromogenic substrate
- Type: biochemical
- condition_summary: substrate N-Benzoyl-Phe-Val-Arg-p-nitroanilide
Measured Kass Trypsin, listed per entry.

Would you please look over these solved cases?
compound	Kass Trypsin
N=C(N)c1ccc(CCNC(=O)[C@@H]2CCCN2C(=O)[C@@H]2NCC[C@@H]3CCCC[C@@H]32)cc1 [Example 28]	0.11 × 10^6 (L/mole)
CC(C)CC[C@H]1C[C@@H](C(=O)NCc2ccc(C(=N)N)cc2)N(C(=O)[C@@H](CC2CCCCC2)NCC(=O)O)C1 (relative stereo) [Example 50]	2,200 × 10^6 (L/mole)
CCS(=O)(=O)N[C@H](Cc1ccccc1)C(=O)N1CCC[C@H]1C(=O)NCCCc1cccc(C(=N)N)c1 [Example 31]	0.05 × 10^6 (L/mole)
CS(=O)(=O)CC(=O)N[C@H](CC1CCCCC1)C(=O)N1CCC[C@H]1C(=O)NCc1ccc(C(=N)N)cc1 [Example 92]	7.7 × 10^6 (L/mole)
N=C(N)c1ccc(CNC(=O)[C@@H]2C[C@@H]3CCCC[C@@H]3N2C(=O)[C@@H]2NCC[C@@H]3CCCC[C@@H]32)cc1 (relative stereo) [Example 42]	43 × 10^6 (L/mole)
CCS(=O)(=O)N[C@H](Cc1ccccc1)C(=O)N1CCC[C@H]1C(=O)NCCCc1ccc(C(=N)N)cc1 [Example 30]	0.03 × 10^6 (L/mole)

[in] API: value(readout= Kass Trypsin, system= Bovine trypsin (Bos taurus), query= O=C(O)CN[C@H](CC1CCCCC1)C(=O)N1CCC[C@H]1C(=O)NCCCC1=CCNCC1 [Example 60] )
[out] 0.03 × 10^6 (L/mole)

[in] GET /values?readout=Kass Trypsin&system=Bovine trypsin (Bos taurus)&item= N=C(N)c1cccc(CNC(=O)[C@@H]2CCCN2C(=O)[C@H](N)Cc2ccccc2)c1 [Example 16, D-Phe-Pro-m-NHCH2 C6 H4 C(NH)NH2.0.75HCl]
[out] 0.02 × 10^6 (L/mole)

[in] Hello, I am looking for reported Kass Trypsin with Bovine trypsin (Bos taurus) for N=C(N)c1ccc(CNC(=O)[C@@H]2CCCN2C(=O)[C@@H](CC2CCCCC2)NCCCC(=O)O)cc1 [Example 85] . Could you help?
[out] 30.8 × 10^6 (L/mole)

---

- study_system: Human Thrombin (Homo sapiens, UniProt P00734)
- measurement_protocol: Inhibition of amidase activity of thrombin (Kass)
- Assay type: biochemical
test_readout: Kass Human Thrombin

compound	study_system	result
N=C(N)c1ccc(CNC(=O)[C@@H]2C[C@@H]3CCCC[C@@H]3N2C(=O)[C@H]2CCCCN2)cc1 (relative stereo) [Example 20, D-hPro-Ohi-p-NHCH2 C6 H4 C(NH)NH2.3HCl]	Human Thrombin (Homo sapiens, UniProt P00734)	10
Nc1ccc(CNC(=O)[C@@H]2CCCN2C(=O)[C@@H](CC2CCCCC2)NCC(=O)O)cc1F	Human Thrombin (Homo sapiens, UniProt P00734)	11

[in] # Kass Human Thrombin lookup, item N=C(N)C1CCC(CNC(=O)[C@@H]2CCCN2C(=O)[C@@H](CC2CCCCC2)NCC(=O)O)NC1 (stereo partly drawn)
[out] 11
